Every entry's value here was drawn from PubChem BioAssay AID248.

- Test system: L1210 leukemia ip in BDF1 mice, survival T/C
- assay.overview: NCI In Vivo Anticancer Drug Screen. Data for tumor model L1210 Leukemia (intraperitoneal) in B6D2F1 (BDF1) mice
- conditions.used: endpoint: mean survival time; dose: 400.0 mg/kg/injection; schedule: Q01DX001 (ip); vehicle: carboxymethylcellulose (CMC); higher = longer survival
Toxic doses and inconclusive results are not listed.
Hi there, I'd appreciate the recorded T/C for every entry that follows.

**Q:** Name the recorded T/C for "COC(=O)Cc1cccc(=O)c(O)c1C(=O)OC" .
**A:** 102 % of control

**Q:** Then "Cc1ccc(S(=O)(=O)N(Cc2ccccc2[N+](=O)[O-])c2ccccc2)cc1" ?
**A:** 103 % of control

**Q:** Then "Cc1ccc2nn(-c3ccc(O)cc3)nc2c1" ?
**A:** 96 % of control

**Q:** Then "CC(=O)O/C=C\c1ccccc1" ?
**A:** 98 % of control

**Q:** Then CC1c2nc(N)nc(N)c2CN1C(=O)c1ccccc1 (configuration not stated) ?
**A:** 97 % of control

**Q:** Then CC(=O)OC1OC(C2COC(C)(C)O2)C2OC(C)(C)OC12 (configuration not stated) ?
**A:** 103 % of control

**Q:** Then COc1cc(C2C(C(=O)OC/C=C/c3ccc4c(c3)OCO4)C(c3cc(OC)c(OC)c(OC)c3)C2C(=O)OC/C=C/c2ccc3c(c2)OCO3)cc(OC)c1OC (configuration not stated) ?
**A:** 88 % of control

**Q:** Then "O=C(O)c1ccccc1C(NC(=O)N1C(=O)C=CC1=O)NC(=O)N1C(=O)C=CC1=O" ?
**A:** 106 % of control

**Q:** Then "N#C/C(=C1C=C/C(=N/O)C(Cl)=C/1)c1ccc(Cl)cc1" ?
**A:** 91 % of control

**Q:** Then "N#Cc1ccc2c(c1)Cc1cc([N+](=O)[O-])ccc1-2" ?
**A:** 91 % of control

**Q:** Then "C[n+]1cc(I)cc2ccccc21" ?
**A:** 101 % of control

**Q:** Then "O=[N+]([O-])c1ccc(/C=N\NC(=S)Nc2ccc3cn[nH]c3c2)cc1" ?
**A:** 105 % of control

**Q:** Then "Cc1ccc(Nc2ccc(C)cc2[N+](=O)[O-])cc1" ?
**A:** 94 % of control

**Q:** Then CCSCCC1(CCC(C)C)C(=O)NC(=Nc2ccccc2)NC1=O (configuration not stated) ?
**A:** 96 % of control

**Q:** Then "Nc1c(Br)cc2c([nH]c(=O)c3cc(Br)ccc32)c1Br" ?
**A:** 106 % of control

**Q:** Then "CC1(O)CCCCCC1" ?
**A:** 89 % of control

**Q:** Then "CS(=O)(=O)Oc1ccc(Cl)c2ccccc12" ?
**A:** 95 % of control
